Data provenance is patent US9636021B2.

- TARGET SYSTEM: bovine serum albumin (BSA) (Bos taurus)
- METHOD DESCRIPTION: fluorescence turn-on with BSA in PBS buffer
- Assay type: binding
- RECORDED CONDITIONS: without BSA; 10 μM dye, 10 mM PBS, 0.5% DMSO, pH 7.4
For each record, write down the corresponding λem(−).
The reply should be a number in nm, with the unit left off.

Return reported λem(−); argument: Nc1ccc(-c2oc3ccccc3c(=O)c2O)cc1
522

Return reported λem(−); argument: CC(=O)Nc1ccc(-c2oc3ccccc3c(=O)c2O)cc1
452

Quick check: λem(−) of CCOCc1ccc2oc(-c3ccc(N(C)C)cc3)c(O)c(=O)c2c1 ?
555

// query λem(−) value for entry CN(C)c1ccc(-c2oc3ccccc3c(=O)c2O)cc1
560

Which λem(−) is reported for this compound? Cc1ccc2oc(-c3ccc(N(C)C)cc3)c(O)c(=O)c2c1
582

I am curious: what λem(−) value has been reported for COc1c(-c2ccc(N(C)C)cc2)oc2ccc(C)cc2c1=O ?
490

----------
Record form. Attribute: λabs. Fill in for each entry.
- METHOD DESCRIPTION: absorbance and fluorescence spectra in DMSO
- Type: physicochemical
// units = nm; emit number, no label

Request the reported λabs associated with CC(=O)Nc1ccc(-c2oc3ccccc3c(=O)c2O)cc1
363

Reported λabs, molecule Nc1ccc(-c2oc3ccccc3c(=O)c2O)cc1 : ____
394

Give its λabs value. Item: COc1c(-c2ccc(N(C)C)cc2)oc2ccc(C)cc2c1=O
390

Reported λabs for CN(C)c1ccc(-c2oc3ccccc3c(=O)c2O)cc1 : what is it?
403

λabs lookup needed for CCOCc1ccc2oc(-c3ccc(N(C)C)cc3)c(O)c(=O)c2c1 , thanks.
403

Need λabs, item Cc1ccc2oc(-c3ccc(N(C)C)cc3)c(O)c(=O)c2c1
404

----------
- TARGET SYSTEM: bovine serum albumin (BSA) (Bos taurus, UniProt P02769)
- Sequence (P02769 25-607): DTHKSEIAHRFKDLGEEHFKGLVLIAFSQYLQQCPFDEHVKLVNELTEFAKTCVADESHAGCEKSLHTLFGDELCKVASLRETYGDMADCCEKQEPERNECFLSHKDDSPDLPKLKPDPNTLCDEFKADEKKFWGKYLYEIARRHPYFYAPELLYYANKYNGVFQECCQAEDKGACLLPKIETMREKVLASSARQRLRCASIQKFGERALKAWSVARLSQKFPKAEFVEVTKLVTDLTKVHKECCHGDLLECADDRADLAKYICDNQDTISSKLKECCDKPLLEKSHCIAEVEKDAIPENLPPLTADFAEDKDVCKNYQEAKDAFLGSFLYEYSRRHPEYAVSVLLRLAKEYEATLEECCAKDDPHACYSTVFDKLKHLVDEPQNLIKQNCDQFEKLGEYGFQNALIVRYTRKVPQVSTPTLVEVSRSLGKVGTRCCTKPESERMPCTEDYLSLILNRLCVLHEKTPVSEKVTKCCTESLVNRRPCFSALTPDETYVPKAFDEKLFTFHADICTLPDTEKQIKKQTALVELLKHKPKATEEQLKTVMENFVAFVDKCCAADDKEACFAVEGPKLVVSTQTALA
- METHOD DESCRIPTION: fluorescence turn-on with BSA in PBS buffer
- Assay type: binding
- RECORDED CONDITIONS: with BSA 1.0 mg/ml; 10 μM dye, 10 mM PBS, 0.5% DMSO, pH 7.4
Response field label: string, one of label 1 (λem(+) strictly below 500 nm) or label 0.

Say whether its λem(+) is strictly beneath 500 nm. Entry: CN(C)c1ccc(-c2oc3ccccc3c(=O)c2O)cc1
label 0

Take the compound COc1c(-c2ccc(N(C)C)cc2)oc2ccc(C)cc2c1=O and say whether its λem(+) is less than 500 nm.
label 1

is_below(λem(+), 500 nm) for Cc1ccc2oc(-c3ccc(N(C)C)cc3)c(O)c(=O)c2c1 ?
label 0

----------
Kindly state Φ for each of the entries shown.
- METHOD DESCRIPTION: absorbance and fluorescence spectra in DMSO
- Assay type: physicochemical
- From the text: The absorbance and fluorescence spectra of compounds 1-6 in dimethyl sulfoxide (DMSO) were investigated and the results are in Table 1.
Just the number please, in %, no unit attached.

# lookup: Φ of Cc1ccc2oc(-c3ccc(N(C)C)cc3)c(O)c(=O)c2c1
11.0

What does the record list as Φ for CN(C)c1ccc(-c2oc3ccccc3c(=O)c2O)cc1 ?
10.0

Entry COc1c(-c2ccc(N(C)C)cc2)oc2ccc(C)cc2c1=O has what Φ?
37.6

For the compound shown here, Nc1ccc(-c2oc3ccccc3c(=O)c2O)cc1 , give the reported Φ.
7.2

Requested field: Φ. Item: CC(=O)Nc1ccc(-c2oc3ccccc3c(=O)c2O)cc1
5.4

Reported Φ for CCOCc1ccc2oc(-c3ccc(N(C)C)cc3)c(O)c(=O)c2c1 : what is it?
14.1

----------
- TARGET SYSTEM: bovine serum albumin (BSA) (Bos taurus, UniProt P02769)
- METHOD DESCRIPTION: fluorescence turn-on with BSA in PBS buffer
- Type: binding
- RECORDED CONDITIONS: BSA
- Protocol: In the aqueous buffer (0.5% DMSO, 10 mM of PBS, pH=7.4), the BSA binding-induced fluorescence turn-on was so large that it could be easily seen by naked eye. […] The intramolecular charge transfer along the D-A conjugated backbone plays a very important role in the environment-sensitivity of the flavone. […] Generally, the detection limit can be defined as the analyte concentration at which a 10% increase in fluorescence emission can be measured. […]
Lab note: anything with visual recognizable detection limit (S/N above 3:1) below 80 µg/mL is marked TRUE; values at 80 µg/mL or higher are marked FALSE.

For this compound, is visual recognizable detection limit (S/N above 3:1) lower than 80 µg/mL? COc1c(-c2ccc(N(C)C)cc2)oc2ccc(C)cc2c1=O
TRUE

Consider Nc1ccc(-c2oc3ccccc3c(=O)c2O)cc1 . Does its visual recognizable detection limit (S/N above 3:1) lie strictly below 80 µg/mL?
FALSE

In the record for CC(=O)Nc1ccc(-c2oc3ccccc3c(=O)c2O)cc1 , is visual recognizable detection limit (S/N above 3:1) less than 80 µg/mL?
FALSE

Regarding CCOCc1ccc2oc(-c3ccc(N(C)C)cc3)c(O)c(=O)c2c1 , kindly confirm whether its visual recognizable detection limit (S/N above 3:1) is beneath 80 µg/mL.
TRUE

Lab note: confirm whether the reported visual recognizable detection limit (S/N above 3:1) for this compound is below 80 µg/mL, equality not counting. compound: Cc1ccc2oc(-c3ccc(N(C)C)cc3)c(O)c(=O)c2c1
TRUE

----------
- TARGET SYSTEM: bovine serum albumin (BSA) (Bos taurus, UniProt P02769)
- METHOD DESCRIPTION: fluorescence turn-on with BSA in PBS buffer
- Assay type: binding
- RECORDED CONDITIONS: BSA 1.0 mg/ml; 10 μM dye, 10 mM PBS, 0.5% DMSO, pH 7.4
- Procedure: In the aqueous buffer (0.5% DMSO, 10 mM of PBS, pH=7.4), the BSA binding-induced fluorescence turn-on was so large that it could be easily seen by naked eye. […] The intramolecular charge transfer along the D-A conjugated backbone plays a very important role in the environment-sensitivity of the flavone. […] Generally, the detection limit can be defined as the analyte concentration at which a 10% increase in fluorescence emission can be measured. […]
Entries whose F(+)/F(−) fluorescence intensity with BSA / without BSA is below 200 take met; entries at or above 200 take not met.

Strictly below 200: is that where F(+)/F(−) fluorescence intensity with BSA / without BSA of CN(C)c1ccc(-c2oc3ccccc3c(=O)c2O)cc1 sits?
met

hey, is F(+)/F(−) fluorescence intensity with BSA / without BSA for CC(=O)Nc1ccc(-c2oc3ccccc3c(=O)c2O)cc1 lower than 200 or not?
met

Is it true that F(+)/F(−) fluorescence intensity with BSA / without BSA reported for CCOCc1ccc2oc(-c3ccc(N(C)C)cc3)c(O)c(=O)c2c1 is less than 200?
not met

Hi there! Is F(+)/F(−) fluorescence intensity with BSA / without BSA for COc1c(-c2ccc(N(C)C)cc2)oc2ccc(C)cc2c1=O below 200, do you know?
not met

Given Nc1ccc(-c2oc3ccccc3c(=O)c2O)cc1 , is recorded F(+)/F(−) fluorescence intensity with BSA / without BSA strictly lower than 200?
met

Please indicate whether the reported F(+)/F(−) fluorescence intensity with BSA / without BSA of Cc1ccc2oc(-c3ccc(N(C)C)cc3)c(O)c(=O)c2c1 is strictly below 200.
met

----------
- TARGET SYSTEM: bovine serum albumin (BSA) (Bos taurus, UniProt P02769)
- METHOD DESCRIPTION: fluorescence turn-on with BSA in PBS buffer
- Format: binding
- RECORDED CONDITIONS: with BSA 1.0 mg/ml; 10 μM dye, 10 mM PBS, 0.5% DMSO, pH 7.4
RESULT TYPE: λabs(+)
Returns: string containing the numeric result and its unit.

Could you share which λabs(+) value was measured for Nc1ccc(-c2oc3ccccc3c(=O)c2O)cc1 ?
386 nm

# query: λabs(+) of entry CC(=O)Nc1ccc(-c2oc3ccccc3c(=O)c2O)cc1
365 nm

State the recorded λabs(+) for this entry: Cc1ccc2oc(-c3ccc(N(C)C)cc3)c(O)c(=O)c2c1
409 nm

λabs(+) for CCOCc1ccc2oc(-c3ccc(N(C)C)cc3)c(O)c(=O)c2c1 ?
415 nm

# lookup: λabs(+) of CN(C)c1ccc(-c2oc3ccccc3c(=O)c2O)cc1
416 nm

GET /values?readout=λabs(+)&item= COc1c(-c2ccc(N(C)C)cc2)oc2ccc(C)cc2c1=O
398 nm

----------
- TARGET SYSTEM: bovine serum albumin (BSA) (Bos taurus)
- METHOD DESCRIPTION: fluorescence turn-on with BSA in PBS buffer
- Assay type: binding
- RECORDED CONDITIONS: without BSA; 10 μM dye, 10 mM PBS, 0.5% DMSO, pH 7.4
Kindly supply the reported λabs(−) values for the records listed here.
I only need the number, in nm, no unit after it.

Record request: λabs(−) value, item Nc1ccc(-c2oc3ccccc3c(=O)c2O)cc1
373

Which value of λabs(−) has been reported for CN(C)c1ccc(-c2oc3ccccc3c(=O)c2O)cc1 in the records?
403

Item under review: COc1c(-c2ccc(N(C)C)cc2)oc2ccc(C)cc2c1=O . Reported λabs(−)?
398

Endpoint output: λabs(−) of CCOCc1ccc2oc(-c3ccc(N(C)C)cc3)c(O)c(=O)c2c1 . Value?
410

Form field: reported λabs(−) of Cc1ccc2oc(-c3ccc(N(C)C)cc3)c(O)c(=O)c2c1
400

For CC(=O)Nc1ccc(-c2oc3ccccc3c(=O)c2O)cc1 , what is its reported λabs(−)?
357
